Overview of reported pest or weed control at 1000 g/ha across a group of compounds:
tested on: Amaranthus retroflexus (AMARE); test: Pre-emergence biological efficacy, glasshouse, 1000 g/ha, evaluated after 13 days (100=total damage to plant; 0=no damage to plant); type: in vivo; settings: Amaranthus retroflexus, 312 h, rate 1,000 g/ha, read-out: Percentage damage caused to weed species, pre-emergence, AMARE

Compound	Endpoint unit	pest or weed control at 1000 g/ha
CCCCOCC(C)OC(=O)c1nc(-c2ccc(Cl)c(OC)c2F)cc2[nH]cc(C)c12 (centres unmarked)	%	40
O=C(O)c1nc(C2CC2)nc2c1ccn2Cc1ccccc1[N+](=O)[O-]	%	0
Cc1c[nH]c2nc(C3CC3)nc(C(=O)O)c12	%	50
COCCOCCOC(=O)c1nc(-c2ccc(Cl)c(OC)c2F)nc2[nH]cc(C)c12	%	100
COc1c(Cl)ccc(-c2nc(C(=O)O)c3cc(C)n(Cc4ccccc4[N+](=O)[O-])c3n2)c1F	%	0
COC(=O)c1nc(-c2ccc(Cl)c(N(C)C)c2F)nc2[nH]cc(C)c12	%	0
COC(=O)c1nc(-c2ccc(Cl)c(OC)c2F)cc2[nH]cc(C)c12	%	90
CCCCOCCOC(=O)c1nc(-c2ccc(Cl)c(OC)c2F)nc2[nH]cc(C)c12	%	40

###

Overview of reported pest or weed control at 1000 g/ha across a group of compounds:
test system: Amaranthus retroflexus (AMARE); assay: Pre-emergence biological efficacy, glasshouse, 1000 g/ha, evaluated after 13 days (100=total damage to plant; 0=no damage to plant); format: in vivo; conditions: Amaranthus retroflexus, 312 h, rate 1,000 g/ha, read-out: Percentage damage caused to weed species, pre-emergence, AMARE
Quantity kind: pest or weed control at 1000 g/ha (%)

Compound	Value reported
COC(=O)c1nc(-c2ccc(Cl)c(OC)c2F)nc2c1Nc1ccccc1N2 [Compound 119-168]	0
COc1c(Cl)ccc(-c2nc(C(=O)O)c3c(C)c[nH]c3n2)c1F [Compound 1-63]	70
CCCCCCCCOC(=O)c1nc(-c2ccc(Cl)c(OC)c2F)nc2[nH]cc(C)c12 [Compound 1-77]	0
COC(=O)c1nc(-c2ccc(Cl)c(OC)c2F)nc2c1NC(C)C(C)N2 (stereo not shown) [Compound 91-184]	0

###

test system: Setaria faberi (SETFA); experiment: Pre-emergence biological efficacy, glasshouse, 1000 g/ha, evaluated after 13 days (100=total damage to plant; 0=no damage to plant); type: in vivo; conditions: Setaria faberi, 312 h, rate 1,000 g/ha, read-out: Percentage damage caused to weed species, pre-emergence, SETFA
Overview of reported pest or weed control at 1000 g/ha across a group of molecules:
Quantity kind: pest or weed control at 1000 g/ha (%)

Molecule	Measured on	Endpoint unit	Value reported
Cc1c[nH]c2nc(C3CC3)nc(C(=O)O)c12 [Compound 1-3]	Setaria faberi (SETFA)	%	10
COc1c(Cl)ccc(-c2nc(C(=O)O)c3c(C)cn(S(=O)(=O)c4ccc(C)cc4)c3n2)c1F [Compound 19-63]	Setaria faberi (SETFA)	%	0
COC(=O)c1nc(-c2ccc(Cl)c(OC)c2F)nc2c1cc(C)n2Cc1ccccc1 [Compound 6-66]	Setaria faberi (SETFA)	%	0
CCCCCCCCOC(=O)c1nc(-c2ccc(Cl)c(OC)c2F)nc2[nH]cc(C)c12 [Compound 1-77]	Setaria faberi (SETFA)	%	10
COC(=O)c1nc(-c2ccc(Cl)c(OC)c2F)nc2scc(C)c12 [Compound 21-64]	Setaria faberi (SETFA)	%	0
Cc1cc2c(C(=O)O)nc(C3CC3)nc2n1Cc1ccccc1[N+](=O)[O-] [Compound 8-5]	Setaria faberi (SETFA)	%	0
CCCCOCCOC(=O)c1nc(-c2ccc(Cl)c(OC)c2F)cc2[nH]cc(C)c12 [Compound 22-83]	Setaria faberi (SETFA)	%	10
COC(=O)c1nc(-c2ccc(Cl)c(OC)c2F)nc2c1c(C)cn2Cc1ccccc1 [Compound 6-64]	Setaria faberi (SETFA)	%	0
COC(=O)c1nc(-c2ccc(Cl)c(OC)c2F)nc2c1Nc1ccccc1N2 [Compound 119-168]	Setaria faberi (SETFA)	%	0
COc1c(Cl)ccc(-c2cc3[nH]cc(C)c3c(C(=O)OC(C)C)n2)c1F [Compound 22-78]	Setaria faberi (SETFA)	%	0
CCCCOCC(C)OC(=O)c1nc(-c2ccc(Cl)c(OC)c2F)cc2[nH]cc(C)c12 (centres unmarked) [Compound 22-84]	Setaria faberi (SETFA)	%	10
COC(=O)c1nc(-c2ccc(Cl)c(OC)c2F)nc2c1cc(C)n2Cc1ccccc1[N+](=O)[O-] [Compound 8-66]	Setaria faberi (SETFA)	%	0
COC(=O)c1nc(-c2ccc(Cl)c(OC)c2F)nc2[nH]c(C)cc12 [Compound 1-66]	Setaria faberi (SETFA)	%	70
COC(=O)c1nc(Cl)nc2c1cc(C)n2Cc1ccco1 [Compound 11-126]	Setaria faberi (SETFA)	%	0
O=C(O)c1nc(-c2ccc(Cl)c(F)c2)nc2c1ccn2Cc1ccccc1 [Compound 6-17]	Setaria faberi (SETFA)	%	0
COC(=O)c1nc(-c2ccc(Cl)c(OC)c2F)nc2c1c(C)cn2C [Compound 2-64]	Setaria faberi (SETFA)	%	0
COC(=O)c1nc(-c2ccc(Cl)c(OC)c2F)cc2c1ccn2Cc1ccco1 [Compound 32-62]	Setaria faberi (SETFA)	%	20
